# System: Calpain activity in SH-SY5Y cells
# TEST DESCRIPTION: SH-SY5Y + AMC fluorescence assay (Suc-LLVY-AMC substrate)
# Type: cell-based
# PROTOCOL CONDITIONS: read-out: SH-SY5Y + AMC IC50
Entries and their IC50

> print(dat)
                                   compound  metric.name  readout.value
1  COc1nccc(-n2nc(C)cc2C(=O)NC(Cc2ccccc2)C(=O)C(N)=O)n1 (stereo not shown)         IC50        < 10 µM

// switching to the query compound
IC50 for Cn1cc(C(=O)NC(Cc2ccccc2)C(=O)C(N)=O)c(-c2ccccc2C(F)F)n1 (stereo not shown) is < 10 µM
